Assay Target: Luciferin 4-monooxygenase (Photinus pyralis) (UniProt P08659)
Sequence (P08659 whole entry, looked up): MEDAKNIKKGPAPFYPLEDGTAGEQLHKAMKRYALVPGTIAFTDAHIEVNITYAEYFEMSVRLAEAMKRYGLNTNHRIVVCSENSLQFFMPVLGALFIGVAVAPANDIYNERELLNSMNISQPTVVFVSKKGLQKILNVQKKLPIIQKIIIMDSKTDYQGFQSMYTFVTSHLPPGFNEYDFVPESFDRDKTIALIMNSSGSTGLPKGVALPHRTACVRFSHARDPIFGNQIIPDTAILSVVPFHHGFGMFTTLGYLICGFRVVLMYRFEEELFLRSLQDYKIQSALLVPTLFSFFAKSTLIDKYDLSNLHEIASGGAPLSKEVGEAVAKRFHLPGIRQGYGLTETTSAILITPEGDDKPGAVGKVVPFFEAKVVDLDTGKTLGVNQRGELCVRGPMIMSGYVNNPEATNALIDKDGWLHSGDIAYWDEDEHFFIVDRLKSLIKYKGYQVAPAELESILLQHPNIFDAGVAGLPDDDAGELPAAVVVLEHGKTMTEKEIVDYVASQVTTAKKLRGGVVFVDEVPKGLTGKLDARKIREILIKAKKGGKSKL
Protocol Notes: Firefly luciferase inhibition profiling of diverse chemical library using quantitative high-throughput screening; also: nearly all actives have a fitted effect of over 65% in size
Experimental Context: purified P. pyralis luciferase, luminescence, biochemical; series mostly up to 115 µM
Excerpt: Firefly (Photinus pyralis) luciferase is one of the most commonly used transcriptional reporters for a number of reasons. […] Although light produced in a bioluminescence reaction is of lower intensity than that produced during fluorescence emission, this is offset by little to no background light inherent to luminescent assays. […]
Hit rate of the full screen: of about 76,000 compounds, about 1,900 (2.5%) were called active. Not shown: some 5% with an inconclusive outcome. Calls follow the shape of the dose curve; as a rule, active = well fitted inhibition curve with a large enough effect; inconclusive = small, poorly fitted or top-dose-only effect; inactive = flat fitted curve, though single readings scatter. This is one part of a sample in which actives are shown more often than they occur.
Classes used: active, inactive

Compound	Class Assignment
COc1ccc(S(=O)(=O)N2CCc3c(C(=O)NCc4ccncc4)cccc32)cc1	inactive
CN(C)C(C(=O)N1CCC(OCc2cccnc2)CC1)c1cccc(F)c1 (stereo not given)	inactive
Cc1ccc(S(=O)(=O)Nc2ccc(C)n(CC(=O)NCc3cccc(F)c3)c2=O)cc1	inactive
Cc1ccc(NC(=O)Nc2ccc(C)n(CC(=O)NCCN3CCCC3)c2=O)cc1	active
CCOC(=O)C1CCN(C(=O)c2ccc(-c3ccc(N4CCCCCC4)nc3)cc2)CC1	inactive

Origin of values: PubChem BioAssay AID1347043
